Reported Kd values for a set of compounds
- system: N-terminally FLAG-tagged PARP2 (amino acids 1-583) (Homo sapiens)
- Construct: N-terminally FLAG-tagged PARP2 (amino acids 1-583)
- Sequence (Q9UGN5 whole entry, the tested form may be a part): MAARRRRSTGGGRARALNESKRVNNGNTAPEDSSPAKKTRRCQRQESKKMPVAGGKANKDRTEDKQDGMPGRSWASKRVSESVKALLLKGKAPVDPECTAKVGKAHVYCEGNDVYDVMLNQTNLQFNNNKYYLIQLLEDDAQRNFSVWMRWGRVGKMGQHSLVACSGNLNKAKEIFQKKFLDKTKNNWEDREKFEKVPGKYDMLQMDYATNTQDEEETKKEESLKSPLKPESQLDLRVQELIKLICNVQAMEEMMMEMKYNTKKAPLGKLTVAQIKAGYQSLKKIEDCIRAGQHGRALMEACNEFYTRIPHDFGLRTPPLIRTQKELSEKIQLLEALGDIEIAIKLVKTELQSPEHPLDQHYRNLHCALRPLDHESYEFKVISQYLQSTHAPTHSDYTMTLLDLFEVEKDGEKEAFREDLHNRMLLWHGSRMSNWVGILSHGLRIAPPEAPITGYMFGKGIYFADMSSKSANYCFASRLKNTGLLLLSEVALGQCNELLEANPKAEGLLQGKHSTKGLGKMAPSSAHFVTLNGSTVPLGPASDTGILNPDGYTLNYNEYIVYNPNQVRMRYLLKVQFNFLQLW
- assay method text: PARP2 probe displacement HTRF assay
- Assay type: binding
- condition context: binned Kd, probe displacement HTRF

Use the examples below as a reference point.
Query CNC(=O)c1ccc(N2CCC(N3CCC(c4cc5c(c(=O)[nH]4)CCC(=O)N5C)C3)CC2)cn1 (racemic) on N-terminally FLAG-tagged PARP2 (amino acids 1-583) (Homo sapiens); Kd returned: 1000 to 10000 nM

Query CNC(=O)c1ccc(N2CCC(N3CCC(c4cc5c(F)ccc(F)c5c(=O)[nH]4)C3)CC2)c(F)n1 (racemic) [Compound 268rac] on N-terminally FLAG-tagged PARP2 (amino acids 1-583) (Homo sapiens); Kd returned: 100 to 1000 nM

// below: Kd requested for another compound
Query CCc1ccc(C2CCN(C3CCN(c4ccc(C#N)cn4)CC3)C2)[nH]c1=O (single isomer, unassigned) [Compound 332b] on N-terminally FLAG-tagged PARP2 (amino acids 1-583) (Homo sapiens); Kd returned: 1000 to 10000 nM

###

- system: full length N-terminally FLAG-tagged PARP1 (Homo sapiens, UniProt P09874)
- Sequence (P09874 whole entry): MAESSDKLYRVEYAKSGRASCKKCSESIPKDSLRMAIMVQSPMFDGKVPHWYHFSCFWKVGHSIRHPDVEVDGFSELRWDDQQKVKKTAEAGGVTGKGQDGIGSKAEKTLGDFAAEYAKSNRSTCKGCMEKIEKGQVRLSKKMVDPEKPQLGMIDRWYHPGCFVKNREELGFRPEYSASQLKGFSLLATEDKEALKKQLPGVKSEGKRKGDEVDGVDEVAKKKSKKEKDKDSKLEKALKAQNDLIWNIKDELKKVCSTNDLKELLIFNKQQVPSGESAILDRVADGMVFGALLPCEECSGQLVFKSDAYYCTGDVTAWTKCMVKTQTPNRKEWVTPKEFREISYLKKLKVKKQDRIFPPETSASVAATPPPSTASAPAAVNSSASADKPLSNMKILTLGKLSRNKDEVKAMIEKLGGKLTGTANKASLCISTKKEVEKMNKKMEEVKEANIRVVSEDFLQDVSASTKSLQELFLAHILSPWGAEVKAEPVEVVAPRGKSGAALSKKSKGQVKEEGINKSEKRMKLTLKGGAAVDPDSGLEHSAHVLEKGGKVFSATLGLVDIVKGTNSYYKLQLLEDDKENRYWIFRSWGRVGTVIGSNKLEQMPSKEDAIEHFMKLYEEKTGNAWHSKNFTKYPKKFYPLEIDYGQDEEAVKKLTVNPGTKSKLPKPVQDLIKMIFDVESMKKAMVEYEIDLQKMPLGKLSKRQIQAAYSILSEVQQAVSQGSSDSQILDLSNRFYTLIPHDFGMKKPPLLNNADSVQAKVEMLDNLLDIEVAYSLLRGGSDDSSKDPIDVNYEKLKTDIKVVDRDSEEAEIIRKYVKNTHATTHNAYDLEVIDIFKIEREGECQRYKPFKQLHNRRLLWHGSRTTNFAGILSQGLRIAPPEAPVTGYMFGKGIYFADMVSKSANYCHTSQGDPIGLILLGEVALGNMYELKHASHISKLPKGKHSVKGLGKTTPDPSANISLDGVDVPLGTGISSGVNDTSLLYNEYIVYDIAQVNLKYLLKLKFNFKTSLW
- assay method text: PARP1 biochemical DELFIA assay (auto-PARylation)
- Set-up: recombinant full length human N-terminally FLAG-tagged PARP1
- condition context: binned IC50, biochemical auto-PARylation assay
Reported IC50 values for a set of compounds

Use the examples below as a reference point.
The recorded IC50 for entry CS(=O)(=O)Nc1ccc(N2CCC(N3CCC(c4cc5ccccc5c(=O)[nH]4)C3)CC2)cc1 (single isomer, unassigned) [Compound 251a] equals 100 to 1000 nM

The recorded IC50 for entry CNC(=O)c1ccc(N2CCC(N3CCC(c4ccc(CCF)c(=O)[nH]4)C3)CC2)cn1 (racemic) [Compound 231rac] equals < 10 nM

***
The recorded IC50 for entry CCc1ccc(C2CCN(C3CCN(c4ccc(C(=O)NCC(F)F)nc4F)CC3)C2)[nH]c1=O (single isomer, unassigned) [Compound 398a] equals < 10 nM

The recorded IC50 for entry CNC(=O)c1ncc(N2CCC(N3CCC(c4cc5ccc(F)cc5c(=O)[nH]4)C3)CC2)cc1F (single isomer, unassigned) [Compound 395a] equals < 10 nM

The recorded IC50 for entry CCN1CCCc2c1nc(C13CC(C1)N(C1CCN(c4ccc(C(=O)NC)nc4F)CC1)C3)[nH]c2=O [Compound 384] equals < 10 nM

The recorded IC50 for entry CNC(=O)c1ccc(N2CCC(N3CC4(c5nc6c(c(=O)[nH]5)CCCN6C)CC3C4)CC2)cn1 [Compound 330] equals < 10 nM

The recorded IC50 for entry CNC(=O)c1ccc(N2CCC(N3CC4(c5nc6c(c(=O)[nH]5)CCCC6)CC3C4)CC2)c(F)n1 [Compound 389] equals < 10 nM

The recorded IC50 for entry CCc1ccc(C2CCN(C3CCN(c4ccc(C(=O)NC5CC5)nc4C#N)CC3)C2)[nH]c1=O (single isomer, unassigned) [Compound 409a] equals < 10 nM

###

Reported pKd values for a set of compounds
- system: full length N-terminally FLAG-tagged PARP1 (Homo sapiens)
- assay method text: PARP1 probe displacement HTRF assay
- condition context: read-out: PARP1 HTRF; binned Kd, PARP1 probe displacement HTRF
pKd: −log10 of the molar value.

Use the examples below as a reference point.
The recorded pKd for entry CNC(=O)c1ccc(N2CCC(N3CCC(c4cc5cnccc5c(=O)[nH]4)C3)CC2)cn1 (racemic) [Compound 204rac] equals > 8.00

The recorded pKd for entry CCc1ccc(C2CCN(C3CCN(c4ccc(C(=O)NC)nc4C(F)F)CC3)C2)[nH]c1=O (single isomer, unassigned) [Compound 164a] equals > 8.00

The recorded pKd for entry CNC(=O)c1ccc(N2CCC(N3CCCC(c4nc5ccccc5c(=O)[nH]4)C3)CC2)c(Cl)n1 (single isomer, unassigned) [Compound 94b] equals > 8.00

The recorded pKd for entry O=c1[nH]c(C2CCN(C3CCN(c4ccccc4)CC3)C2)nc2ccccc12 (single isomer, unassigned) [Compound 32a] equals 7.00 to 8.00

The recorded pKd for entry CNC(=O)c1ccc(N2CCC(N3CCCC(c4nc5sc6c(c5c(=O)[nH]4)CCC6)C3)CC2)cn1 (single isomer, unassigned) [Compound 185a] equals > 8.00

***
The recorded pKd for entry COCCNC(=O)c1ccc(N2CCC(N3CCCC(c4nc5ccccc5c(=O)[nH]4)C3)CC2)cn1 (single isomer, unassigned) [Compound 116b] equals 6.00 to 7.00

###

- system: full length N-terminally FLAG-tagged PARP1 (Homo sapiens)
- assay method text: PARP1 probe displacement HTRF assay
- condition context: read-out: PARP1 HTRF; binned Kd, probe displacement HTRF
readout type: Kd

The recorded Kd for entry CCc1ccc(C2CCN(C3CCN(c4ccc(C(=O)NC5CC5)nc4)CC3)C2)[nH]c1=O (single isomer, unassigned) [Compound 338a] equals < 10 nM

The recorded Kd for entry CNC(=O)c1ccc(N2CCC(N3CCC(c4[nH]c(=O)c5ccccc5c4C(F)(F)F)C3)CC2)cn1 (single isomer, unassigned) [Compound 404a] equals 10 to 100 nM

// below: Kd requested for another compound
The recorded Kd for entry CNC(=O)c1ccc(N2CCC(N3CCC(c4nc5c(C)scc5c(=O)[nH]4)C3)CC2)cn1 (single isomer, unassigned) [Compound 232a] equals 10 to 100 nM

###

- system: N-terminally FLAG-tagged PARP2 (amino acids 1-583) (Homo sapiens)
- Construct: N-terminally FLAG-tagged PARP2 (amino acids 1-583)
- assay method text: PARP2 probe displacement HTRF assay
- Type: binding
- condition context: binned Kd, PARP2 probe displacement HTRF
Reported Kd values for a set of compounds

Query CNC(=O)c1ccc(N2CCC(N3CCCC(c4nc5sc(C)c(C)c5c(=O)[nH]4)C3)CC2)cn1 (single isomer, unassigned) [Compound 199b] on N-terminally FLAG-tagged PARP2 (amino acids 1-583) (Homo sapiens); Kd returned: > 10000 nM

Query CNC(=O)c1ccc(N2CCC(N3CCCC(c4nc5sc6c(c5c(=O)[nH]4)CCC6)C3)CC2)cn1 (single isomer, unassigned) [Compound 185a] on N-terminally FLAG-tagged PARP2 (amino acids 1-583) (Homo sapiens); Kd returned: 100 to 1000 nM

Query CNC(=O)c1ccc(N2CCC(N3CCCC(c4nc5ccccc5c(=O)[nH]4)CC3)CC2)cn1 (racemic) [Compound 102rac] on N-terminally FLAG-tagged PARP2 (amino acids 1-583) (Homo sapiens); Kd returned: 1000 to 10000 nM

Query CNC(=O)c1ccc(N2CCC(N3CCCC(c4ccc(CC(F)(F)F)c(=O)[nH]4)C3)CC2)cn1 (single isomer, unassigned) [Compound 169a] on N-terminally FLAG-tagged PARP2 (amino acids 1-583) (Homo sapiens); Kd returned: > 10000 nM

Query CNC(=O)c1ccc(N2CCC(N3CCCC(c4nc5cnccc5c(=O)[nH]4)C3)CC2)cn1 (single isomer, unassigned) [Compound 106a] on N-terminally FLAG-tagged PARP2 (amino acids 1-583) (Homo sapiens); Kd returned: > 10000 nM

Query CCNC(=O)c1ccc(N2CCC(N3CCCC(c4nc5ccccc5c(=O)[nH]4)C3)CC2)cn1 (single isomer, unassigned) [Compound 122a] on N-terminally FLAG-tagged PARP2 (amino acids 1-583) (Homo sapiens); Kd returned: > 10000 nM

***
Query CNC(=O)c1ccc(N2CCC(N3CCC(c4nc5ncccc5c(=O)[nH]4)C3)CC2)cn1 (single isomer, unassigned) [Compound 60b] on N-terminally FLAG-tagged PARP2 (amino acids 1-583) (Homo sapiens); Kd returned: > 10000 nM

Query CNC(=O)c1ccc(OCCCN2CCC(c3nc4ccccc4c(=O)[nH]3)CC2)cn1 [Compound 2] on N-terminally FLAG-tagged PARP2 (amino acids 1-583) (Homo sapiens); Kd returned: 1000 to 10000 nM

Query CNC(=O)c1ccc(N2CCC(N3CCC(c4ncc(C(F)(F)F)c(=O)[nH]4)C3)CC2)cn1 (single isomer, unassigned) [Compound 56a] on N-terminally FLAG-tagged PARP2 (amino acids 1-583) (Homo sapiens); Kd returned: > 10000 nM

Query CCc1cnc(-c2cnn(C3CCN(c4ccc(C(=O)NC)nc4)CC3)c2)[nH]c1=O [Compound 20] on N-terminally FLAG-tagged PARP2 (amino acids 1-583) (Homo sapiens); Kd returned: > 10000 nM

Query CNC(=O)c1ccc(N2CCC(N3CCC(c4cc5c(Cl)cccc5c(=O)[nH]4)C3)CC2)cn1 (single isomer, unassigned) [Compound 137a] on N-terminally FLAG-tagged PARP2 (amino acids 1-583) (Homo sapiens); Kd returned: 100 to 1000 nM

Query CNC(=O)c1ccc(N2CCC(N3CCC(c4cc5ccc(F)cc5c(=O)[nH]4)C3)CC2)cn1 (racemic) [Compound 154rac] on N-terminally FLAG-tagged PARP2 (amino acids 1-583) (Homo sapiens); Kd returned: 10 to 100 nM

Query CNC(=O)c1ccc(N2CCC(N3CCC(c4nc5cccc(F)c5c(=O)[nH]4)C3)CC2)cn1 (single isomer, unassigned) [Compound 101a] on N-terminally FLAG-tagged PARP2 (amino acids 1-583) (Homo sapiens); Kd returned: 100 to 1000 nM

Query CCc1ccc(C2CCN(C3CCN(c4ccc(C(=O)NCCF)nc4)CC3)C2)[nH]c1=O (single isomer, unassigned) [Compound 165b] on N-terminally FLAG-tagged PARP2 (amino acids 1-583) (Homo sapiens); Kd returned: 1000 to 10000 nM

Query CCNC(=O)c1ccc(N2CCC(N3CCC(c4ccc(CC)c(=O)[nH]4)C3)CC2)cn1 (racemic) [Compound 171rac] on N-terminally FLAG-tagged PARP2 (amino acids 1-583) (Homo sapiens); Kd returned: 100 to 1000 nM

Query CNC(=O)c1ccc(OCCN2CCCC(c3nc4ccccc4c(=O)[nH]3)C2)cn1 (single isomer, unassigned) [Compound 65a] on N-terminally FLAG-tagged PARP2 (amino acids 1-583) (Homo sapiens); Kd returned: 100 to 1000 nM

Query CNC(=O)c1ccc(N2CCC(N3CCC(c4nc5c(c(C(F)(F)F)nn5C)c(=O)[nH]4)C3)CC2)cn1 (single isomer, unassigned) [Compound 187b] on N-terminally FLAG-tagged PARP2 (amino acids 1-583) (Homo sapiens); Kd returned: < 10 nM

Query CNC(=O)c1ccc(N2CCC(N3CCCC(c4nc5sc6c(c5c(=O)[nH]4)CCC6)C3)CC2)cn1 (single isomer, unassigned) [Compound 185b] on N-terminally FLAG-tagged PARP2 (amino acids 1-583) (Homo sapiens); Kd returned: 1000 to 10000 nM

Query CCc1nc(C(=O)NC)ccc1N1CCC(N2CCC(c3nc4ccccc4c(=O)[nH]3)C2)CC1 (single isomer, unassigned) [Compound 118a] on N-terminally FLAG-tagged PARP2 (amino acids 1-583) (Homo sapiens); Kd returned: > 10000 nM

Entry source: patent US20250152585A1
